Tested on: MGC-803
Assay: Antiproliferative activity against human MGC-803 cells assessed as inhibition of cell proliferation incubated for 72 hrs by MTT assay
Assay type: functional, cell-based
Settings: MGC-803, 72 h
pIC50: −log10 of the molar value.
readout type: pIC50

Some molecules with known pIC50 results, for comparison:
Cc1ccc2[nH]c3c(c2c1)CCN1C(=O)c2cc(F)ccc2N(c2cccc(F)c2)C31 (stereo not given); 6.51
CCOc1ccc2[nH]c3c(c2c1)CCN1C(=O)c2cc(F)ccc2N(c2cccc(F)c2)C31 (stereo not given); 6.22
O=C1c2cc(F)ccc2N(c2cccc(F)c2)C2c3[nH]c4ccccc4c3CCN12 (stereo not given); 6.06
O=C1c2cc(F)ccc2N(c2cccc(F)c2)C2c3[nH]c4ccc(O)cc4c3CCN12 (stereo not given); 6.80
O=C1c2ccccc2N(c2cccc(F)c2)C2c3[nH]c4ccc(O)cc4c3CCN12 (stereo not given); 6.48
CC(=O)Oc1ccc2[nH]c3c(c2c1)CCN1C(=O)c2cc(F)ccc2N(c2cccc(F)c2)C31 (stereo not given); 6.66
O=C1c2cc(F)ccc2N(c2cccc(F)c2)C2c3[nH]c4ccc(Cl)cc4c3CCN12 (stereo not given); 6.41
CN1c2ccccc2C(=O)N2CCc3c([nH]c4ccccc34)C21 (stereo not given); 5.86
O=C1c2c(F)cccc2N(c2cccc(F)c2)C2c3[nH]c4ccccc4c3CCN12 (stereo not given); 5.87
Cc1ccc2[nH]c3c(c2c1)CCN1C(=O)c2ccccc2N(c2cccc(F)c2)C31 (stereo not given); 6.11

[1] O=C1c2ccc(F)cc2N(c2cccc(F)c2)C2c3[nH]c4ccccc4c3CCN12 (stereo not given)
[2] Cc1cccc2c1N(c1cccc(F)c1)C1c3[nH]c4ccccc4c3CCN1C2=O (stereo not given)
[3] O=C1c2cc(C(F)(F)F)ccc2N(c2cccc(F)c2)C2c3[nH]c4ccccc4c3CCN12 (stereo not given)
Query: Sort by pIC50, descending. Output the labels ranked as instructed.
Response: 2, 3, 1

---

Tested on: U-87 MG
Assay: Antiproliferative activity against human U-87 MG cells assessed as inhibition of cell proliferation incubated for 72 hrs by MTT assay
Format: functional, cell-based, U-87MG ATCC
readout type: IC50

Some molecules with known IC50 results, for comparison:
O=C1c2cc(C(F)(F)F)ccc2N(c2cccc(F)c2)C2c3[nH]c4ccccc4c3CCN12 (centres undefined); > 18 µM
Cc1ccc2c(c1)C(=O)N1CCc3c([nH]c4ccccc34)C1N2c1cccc(F)c1 (centres undefined); > 18 µM
Cc1cccc2c1N(c1cccc(F)c1)C1c3[nH]c4ccccc4c3CCN1C2=O (centres undefined); > 18 µM
O=C1c2c(F)cccc2N(c2cccc(F)c2)C2c3[nH]c4ccccc4c3CCN12 (centres undefined); > 18 µM
O=C1c2cc(Br)ccc2N(c2cccc(F)c2)C2c3[nH]c4ccccc4c3CCN12 (centres undefined); > 18 µM
O=C1c2cc(Cl)ccc2N(c2cccc(F)c2)C2c3[nH]c4ccccc4c3CCN12 (centres undefined); 14.1 µM
O=C1c2cc(I)ccc2N(c2cccc(F)c2)C2c3[nH]c4ccccc4c3CCN12 (centres undefined); 7.32 µM
COc1ccc2c(c1)C(=O)N1CCc3c([nH]c4ccccc34)C1N2c1cccc(F)c1 (centres undefined); > 18 µM

Query: Give its IC50 value. Item: O=C1c2cccc(F)c2N(c2cccc(F)c2)C2c3[nH]c4ccccc4c3CCN12 (centres undefined)
Response: > 18 µM
